experimental-system: T1, human GPC3 (human, UniProt P51654 25-563)
T1 construct: range 25-563; soluble analyte; also called soluble human GPC3; glypican 3
T1 sequence (P51654 25-563 limits assumed): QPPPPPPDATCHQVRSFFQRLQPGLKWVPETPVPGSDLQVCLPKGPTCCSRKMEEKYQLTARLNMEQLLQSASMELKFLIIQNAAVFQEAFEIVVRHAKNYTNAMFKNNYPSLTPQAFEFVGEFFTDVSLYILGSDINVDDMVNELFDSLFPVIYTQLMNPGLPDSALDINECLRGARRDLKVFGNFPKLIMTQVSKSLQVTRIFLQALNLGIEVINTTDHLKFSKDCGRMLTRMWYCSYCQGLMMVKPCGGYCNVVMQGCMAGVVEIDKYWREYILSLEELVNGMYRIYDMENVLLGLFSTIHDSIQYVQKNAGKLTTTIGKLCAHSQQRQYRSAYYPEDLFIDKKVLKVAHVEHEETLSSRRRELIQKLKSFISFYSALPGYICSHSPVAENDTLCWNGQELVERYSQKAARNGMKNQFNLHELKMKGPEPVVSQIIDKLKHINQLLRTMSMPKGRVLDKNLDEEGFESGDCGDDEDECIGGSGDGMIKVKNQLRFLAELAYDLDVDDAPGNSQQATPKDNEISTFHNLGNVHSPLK
method-summary: SPR
In this section we review reported Kd values for a set of binders.
State the value, then name its unit.

| binder | Kd |
| --- | --- |
| GCH040-G1dh/none-Hi-Kn010G3/L0000-k0 (antibody, V domains shown, one-arm) VH: QVQLVQSGAEVKKPGASVKVSCKASGYTFTDYEMHWIRQPPGQGLEWIGAIDGKTPDTAYSQKFKGRVTLTADKSTSTAYMELSELTSEDTAVYYCTRFYSYTYWGQGTLVTVSS VL: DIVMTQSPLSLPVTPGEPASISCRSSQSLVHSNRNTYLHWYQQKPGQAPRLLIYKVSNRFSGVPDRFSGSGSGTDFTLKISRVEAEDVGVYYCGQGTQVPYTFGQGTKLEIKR | 4.8 nM |

Next:
# input Returns the measured Kd for the input binder. Input: H0610-G1dh/none-Hi-Kn010G3/L0237-k0 (antibody, V domains shown, one-arm) VH: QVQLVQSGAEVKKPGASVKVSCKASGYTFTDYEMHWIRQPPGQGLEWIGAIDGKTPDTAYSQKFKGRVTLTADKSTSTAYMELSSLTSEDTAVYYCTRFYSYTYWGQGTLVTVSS VL: DIVMTQSPLSLPVTPGEPASISCRSSQEPVHSNRNTYIHWYQQKPGQAPRLLIYKVSNRFSGVPDRFSGSGSGTDFTLKISRVEAEDVGVYYCYQGTQVPYTFGQGTKLEIK
# output 1.31 nM
